For each record, write down the corresponding IC50.
Biological target: human L-Selectin-IgG-chimera (Homo sapiens, UniProt P14151)
Sequence (P14151 with tags, fused parts or gaps limits assumed): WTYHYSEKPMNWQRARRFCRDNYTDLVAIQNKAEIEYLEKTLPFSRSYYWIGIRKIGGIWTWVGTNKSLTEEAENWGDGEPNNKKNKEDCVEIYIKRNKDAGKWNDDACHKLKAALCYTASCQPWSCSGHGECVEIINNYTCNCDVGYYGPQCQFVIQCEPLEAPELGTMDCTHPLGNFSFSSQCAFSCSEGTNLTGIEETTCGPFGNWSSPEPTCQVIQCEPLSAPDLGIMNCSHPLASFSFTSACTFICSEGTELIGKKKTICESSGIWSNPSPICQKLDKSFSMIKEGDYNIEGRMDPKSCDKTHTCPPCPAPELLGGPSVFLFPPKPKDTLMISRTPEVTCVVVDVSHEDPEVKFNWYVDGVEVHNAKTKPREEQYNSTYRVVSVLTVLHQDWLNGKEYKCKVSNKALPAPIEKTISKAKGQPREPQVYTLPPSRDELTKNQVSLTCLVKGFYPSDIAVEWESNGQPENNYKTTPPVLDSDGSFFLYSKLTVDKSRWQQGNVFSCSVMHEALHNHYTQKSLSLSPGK
Test: Sialyl Lewis x Tyrosine Sulfate Assay (sLex TSA), L-selectin
Details: inhibition of binding of sLex-tyrosine sulfate polyacrylamide ligand complex
Respond with the bare value in µM.

// IC50 lookup, compound = O=C(O)Cc1ccc(-c2ccccc2NC(=O)c2cccc(-c3cc([N+](=O)[O-])cc(O)c3O)c2)s1 [Compound 116] , result: 8.7

// sample O=C(O)Cc1ccc(-c2ccccc2NC(=O)c2cccc(-c3cc(O)c(O)cc3[N+](=O)[O-])c2)s1 [Compound 118] , its IC50 was 39.2

The measured IC50 associated with O=C(Nc1ccccc1-c1ccc(C(=O)O)s1)c1cccc(-c2cc([N+](=O)[O-])cc(O)c2O)c1 [Compound 120] reads 6.6

Looking up O=C(Nc1ccccc1-c1ccc(C(=O)O)s1)c1cccc(-c2cc(O)c(O)cc2[N+](=O)[O-])c1 [Compound 119] , I see its IC50 listed as 17.1
